# System: OCI-AML2;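 also: after 48 h exposure read by CellTiter-Glo luminescence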
# Protocol Notes: cell viability relative to vehicle control; higher = less cytotoxic
# Condition Set: 10 µM; SRSF2 genotype: P95H/wt
Where a name gives a salt, the structure may show the parent alone.
Under this convention, condition met denotes cell viability strictly below 90% and condition not met denotes cell viability at or above 90%.

Examples from the recorded data:
NC(=O)/C(=C/n1cnc(-c2cc(C(F)(F)F)cc(C(F)(F)F)c2)n1)c1cncnc1 :: condition met
COc1cc(N)c(Cl)cc1C(=O)NC1CCN(CCCOc2ccc(F)cc2)CC1OC (centres undefined) [Cisapride hydrate] :: condition not met
NC(=O)c1ccc[n+]([O-])c1 [Nicotinamide N-oxide] :: condition not met
C=C(C)[C@@H]1CC[C@]2(C(=O)O)CC[C@]3(C)[C@H](CC[C@@H]4[C@@]5(C)CCC(=O)C(C)(C)[C@@H]5CC[C@]43C)[C@@H]12 [Betulonic acid] :: condition met
O=C(O)c1ccc(O)c2ncccc12 :: condition not met
NC(=O)c1ccc(-c2nc(-c3ccc4c(c3)OCCO4)c(-c3ccccn3)[nH]2)cc1 :: condition not met
CCCCCCC(O)C(=O)O (centres undefined) [2-Hydroxycaprylic acid] :: condition not met
C/C(=C(/CCOC(=O)c1ccccc1)SC(=O)c1ccccc1)N(C=O)Cc1cnc(C)nc1N [Dibenzoyl Thiamine] :: condition not met
CC(C)Cc1ccc([C@@H](C)C(=O)NS(C)(=O)=O)cc1 [Reparixin (Repertaxin)] :: condition not met
COc1cc2c(cc1OC)[C@@H]1Cc3ccc(OC)c(OC)c3CN1CC2 [Rotundine] :: condition not met

cell viability under 90%? Item: `C=CC(=O)Nc1cccc(Nc2nc(Nc3ccc(Oc4ccnc(C(=O)NC)c4)cc3)ncc2F)c1`
condition met

In the record for c1nc2c(NC3CCCCC3)nc(Nc3ccc(N4CCOCC4)cc3)nc2[nH]1 [Reversine] , is cell viability less than 90%?
condition met

Quick check: cell viability of O=C(NC(Cc1cc(=O)[nH]c2ccccc12)C(=O)O)c1ccc(Cl)cc1 (centres undefined) [Rebamipide] under 90%?
condition not met

Lab log: compare recorded cell viability with 90%; is it strictly lower for `O=S(=O)(NCCSSCCNS(=O)(=O)c1cc(Cl)ccc1Cl)c1cc(Cl)ccc1Cl` ?
condition met

Dear reviewer, please state whether `COc1ccc(-c2ccc3c(N4CCOC[C@@H]4C)nc(N4CCOC[C@@H]4C)nc3n2)cc1CO` has cell viability strictly beneath 90%.
condition met

Dear reviewer, please state whether CC(=CCNc1ncnc2nc[nH]c12)CO [Trans-Zeatin] has cell viability strictly beneath 90%.
condition not met

Record `c1ccc(-c2nn3c(c2-c2ccnc4cc(OCCN5CCOCC5)ccc24)CCC3)nc1` : is its cell viability strictly below 90%?
condition not met

Bench note: check whether c1ccc2c(CC3=NCCN3)cccc2c1 [Naphazoline hydrochloride (Naphcon)] shows cell viability below 90%
condition not met

Hi there! Is cell viability for CC1=C(CSC(=S)N2CCCCC2)C(=O)c2ccccc2C1=O [PKM2 inhibitor(compound 3k)] below 90%, do you know?
condition met

For CC12CCC(O)CC1=CCC1C2CCC2(C)C(C(O)CC(O)(C(F)(F)F)C(F)(F)F)CCC12 (centres undefined) , is the recorded cell viability below the cut-off of 90%?
condition met

Source: the supplement of paper PMC10981050
